As shown below, each of these compounds has a reported CMV-LACZ in Myoblasts, value relative to DMSO value.
test system: β-galactosidase in CMV-LacZ C2C12 myoblasts; experiment: CMV-LacZ secondary screen in C2C12 myoblasts (β-Gal stabilizing assay); type: cell-based, mouse; conditions: 10 uM; SU9516 analogs, C2C12 CMV-LacZ, N=2
Just the number.

# compound, value
data = [
    ("Cc1cc(C)c(/C=C2\\C(=O)Nc3ccccc32)[nH]1 [NCGC00094381-03]", 1.0089),
    ("O=C1Nc2ccccc2/C1=C/c1ccccc1Cl", 1.1386),
]

// moving on: another record for CMV-LACZ in Myoblasts, value relative to DMSO
Input C=CCOc1ccc(C(=O)/C=C2/C(=O)Nc3ccccc32)cc1 . Output CMV-LACZ in Myoblasts, value relative to DMSO: 0.9233

---

test system: α7 integrin (LacZ reporter in α7+/LacZ myotubes); test: Myotube α7 integrin FDG assay (Burkin assay in myotubes, 96-well); format: cell-based, mouse; conditions: Mus musculus, Myotube; myotubes, 10 uM; read-out: Burkin Assay in Myotubes, α7 integrin LacZ reporter signal relative to DMSO
The label is MET for fold induction at 10 µM below 1 and NOT MET for fold induction at 10 µM equal to or exceeding 1.

Item Nc1nccc(-c2ccc(-n3cnc4ccccc43)cc2)n1 : fold induction at 10 µM beneath 1, strictly?
NOT MET

Consider the molecule O=c1nc(C2CCN(S(=O)(=O)c3ccc4c(c3)OCCO4)CC2)nc2n(Cc3c(F)cccc3Cl)[nH]nc1-2 . Is its fold induction at 10 µM strictly less than 1?
NOT MET

For COc1cc(C)c(NC(=O)COc2ccc3c(c2)OCO3)cc1C , is the recorded fold induction at 10 µM below the cut-off of 1?
NOT MET

Consider the molecule Cc1ccc(OCC(=O)N2CCN(S(=O)(=O)c3ccc4c(c3)OCCO4)CC2)c(C)c1 . Is its fold induction at 10 µM strictly less than 1?
MET

Field: below-cutoff. Rule: recorded fold induction at 10 µM strictly less than 1. Subject: COc1nccc(NCc2ccccc2)c1C#N
NOT MET

Item CCOC(=O)C1CCCN(C(=O)CNS(=O)(=O)c2ccc(Br)s2)C1 (stereo not drawn) : fold induction at 10 µM beneath 1, strictly?
MET

---

tested on: β-galactosidase in CMV-LacZ C2C12 myotubes; test: CMV-LacZ secondary screen in C2C12 myotubes (β-Gal stabilizing assay); type: cell-based, mouse; settings: 40 uM; SU9516 analogs, C2C12 CMV-LacZ, N=2
parameter: CMV-LACZ in Myotubes, value relative to DMSO
Kindly provide the number alone.

Solved cases (3 shown):
# molecule, value
measured = [
    ("Cc1ccc(/C=C2\\C(=O)Nc3ccccc32)o1 [MLS000391588-01]", 0.9094),
    ("COc1ccc(C(=O)/C=C2/C(=O)Nc3ccccc32)cc1OC [MLS001163860-01]", 1.4490),
    ("CCN(CC)CCNC(=O)c1c(C)[nH]c(/C=C2\\C(=O)Nc3ccc(F)cc32)c1C [NCGC00164631-04]", 0.6690),
]

Turning now to a further molecule:
Tested on β-galactosidase in CMV-LacZ C2C12 myotubes, the item COc1ccccc1/C=C1\C(=O)Nc2ccccc21 [MLS001202634-01] showed CMV-LACZ in Myotubes, value relative to DMSO equal to 0.9340

Reference source for all entries: patent US9980943B2
